test system: TNFα production in THP-1 cells; test: LPS induced TNFα production assay in THP-1 cells; type: cell-based; conditions: Homo sapiens, 300 ng/mL LPS, measured at 5 hours
endpointName: IC50

INSERT INTO results (molecule, datavalue) VALUES
  ('c1nc(N[C@H]2CC[C@H](N3CCOCC3)CC2)c2cc(-c3cn[nH]c3)ccc2n1', '≤ 0.5 µM');

[ask] Query IC50 on TNFα production in THP-1 cells for "c1nc(N[C@H]2CC[C@H](N3CCOCC3)CC2)c2c3c(ccc2n1)CCC3"
[reply] 0.5 to 5 µM

[ask] Query IC50 on TNFα production in THP-1 cells for "Cn1cc(Nc2nc(N[C@H]3CC[C@H](N4CCOCC4)CC3)c3cc(C#N)ccc3n2)cn1"
[reply] ≤ 0.5 µM

[ask] Query IC50 on TNFα production in THP-1 cells for "N#Cc1ccc2ncnc(N[C@H]3CC[C@H](N4CCC5(CC4)COC5)CC3)c2c1"
[reply] ≤ 0.5 µM

[ask] Query IC50 on TNFα production in THP-1 cells for "Clc1ccc2ncnc(N[C@H]3CC[C@H](N4CCC5(CC4)CC5)CC3)c2c1"
[reply] ≤ 0.5 µM

[ask] Query IC50 on TNFα production in THP-1 cells for "CCc1ccc2ncnc(N[C@H]3CC[C@H](N4CCC5(CC4)CC5)CC3)c2c1"
[reply] ≤ 0.5 µM

[ask] Query IC50 on TNFα production in THP-1 cells for "OC/C=C/c1ccc2ncnc(N[C@H]3CC[C@H](N4CCOCC4)CC3)c2c1"
[reply] ≤ 0.5 µM

[ask] Query IC50 on TNFα production in THP-1 cells for "Clc1ccc2ncnc(N[C@H]3CC[C@H](N4CCC5(CC4)COC5)CC3)c2c1"
[reply] ≤ 0.5 µM

[ask] Query IC50 on TNFα production in THP-1 cells for "NC(=O)c1ccc2ncnc(N[C@H]3CC[C@H](N4CCOCC4)CC3)c2c1"
[reply] 0.5 to 5 µM

[ask] Query IC50 on TNFα production in THP-1 cells for "Brc1ccc2ncnc(N[C@H]3CC[C@H](N4CCOCC4)CC3)c2c1"
[reply] ≤ 0.5 µM

[ask] Query IC50 on TNFα production in THP-1 cells for "N#Cc1ccc2nccc(N[C@H]3CC[C@H](N4CCOCC4)CC3)c2c1"
[reply] 0.5 to 5 µM

[ask] Query IC50 on TNFα production in THP-1 cells for "OCCCc1ccc2ncnc(N[C@H]3CC[C@H](N4CCOCC4)CC3)c2c1"
[reply] ≤ 0.5 µM

[ask] Query IC50 on TNFα production in THP-1 cells for "N#Cc1ccc2nc(Nc3cnn(CCO)c3)nc(N[C@H]3CC[C@H](N4CCOCC4)CC3)c2c1"
[reply] 0.5 to 5 µM

[ask] Query IC50 on TNFα production in THP-1 cells for "N#Cc1ccc2ncnc(N[C@H]3CC[C@H](N4CCOCC4)CC3)c2c1"
[reply] ≤ 0.5 µM

[ask] Query IC50 on TNFα production in THP-1 cells for "N#CCc1ccc2ncnc(N[C@H]3CC[C@H](N4CCOCC4)CC3)c2c1"
[reply] 0.5 to 5 µM

Each recorded value in this set is attributed to patent US20150329498A1.
